test system: M. tuberculosis; type: cell-based, Mycobacterium tuberculosis; conditions: pH 6.8
# note: boundary value 9 µg/mL maps to class 0; MIC in the media L-Ala below it maps to class 1

INSERT INTO measurements (compound, class_label) VALUES
  ('CSc1nc(=O)[nH]nc1Sc1ccccc1', 'class 1'),
  ('Oc1ccc(Cl)cc1Sc1cc(Cl)ccc1O', 'class 1'),
  ('O=[N+]([O-])c1cnc(Sc2ccncn2)s1', 'class 1'),
  ('O=[N+]([O-])/C=C/c1cc2ccccc2[nH]1', 'class 0');

Could you now look at the following compound, please?
Ask | Does this compound meet the criterion MIC in the media L-Ala < 9 µg/mL? `O=C(O)c1cc2ccccc2cc1Nc1ccccc1`
Reply | class 1
